Assay: soluble fraction after stress (log2 fold change); higher = more stays soluble; pooled small domains, quantitative proteomics
Conditions: stress: pH 4
soluble fraction (log2) below 0.01 gives F; soluble fraction (log2) at or above it gives T.

# seq.text, cat
measured = [
    ("HMDAVSTMIENLRVKTGKSLADWVGLAKGSGADKHGAMVGWLKSEHGLTHGYANLIAHETFRSAA", "T"),
    ("HMYELREGDVVSVRILSQTGQNSYIASFAGGRFSVTSERAFAPGTVFSASVSLKDGTLVLSPL", "T"),
    ("HMGNASQAARRQRIVDAALELLQDRPYDQIQMRDVAEGAGVALGTLYRYFPSKEQLFAHVLVE", "F"),
    ("HMEYYIMPVANLHKVVVDGKDMSNLISNNAIAVKANVIDEGQIQIKPGEIIITTPAGVSPEEAVRSP", "F"),
    ("HMDPKISWESDEKLSANIGHYENSIKPLMGNKYLIELSQLKDKIESHPWVARATIKRIFWNKIHIQLESHD", "T"),
    ("HMIYAEDFVGRQGTANTILRPSGRIEIEGEVYDAYTRGEYVEAGERVVVISQEGSTLKVRVV", "F"),
    ("HMREVEAPRDLLAALGERPGALDAWKALSFTHQREYVEAIEDARKPETRERRIANAVKMVAERS", "T"),
    ("HMRTYDPQAVELNNKALELINQGRLDSALLVYDQSIKTDKTYYFPHIGKSIIYMRKKDWNKAFEETQQAIK", "T"),
    ("HMLYITEIQKKIMDAFLVVANESNSGTRITMNEIANKVRMTPQAIYRKHFKSVIEISDTIRD", "F"),
    ("HMNKMIDAPDLTGLSLEDAKLVLEANKLQLGTVSHEPSDKPEDVVISQDPMEGQEIQQGGKVNLVVSYGD", "F"),
    ("HMGKREKTKVANRQAILVAARAVFAELGYEAATVRDIIRGTDLASGTFYNYFKSKEEVFDALADDGA", "F"),
    ("HMIPRGFSRYYILELLQKKPHTGKEIIDNAIKESGGRWNPSPGLIYPLLGRLLDENLIEETNDGKYK", "F"),
    ("HMNMAVELEDGTQIFVFSEDGEFAGKRAVIADEEGRPTEENAPAGTHTLRDGRSIVVGEGGVIESVVET", "F"),
    ("HMEHDTVLSKVFRRLREAHVPLSLDDIYQGLRKTVNNNSEIREKIVTLQERGLVAEILGPKGGKKYVAKPT", "T"),
    ("HMTKTKFLSKDMILSAMSRTKSNRAAARYLSVSFVHYKKYAREYKDETSGVSLWEKHKNQSGTGIPK", "T"),
    ("HMNEKMKEIGLRIKELRELSDISAQGMADHLKIPLETYQEYEDGKKDIPASILFEISQKMEVDMGLLLTGE", "F"),
    ("HMGSEISYSEFLNRVEQGQVAAVRLDGEQIFITGPTGEAYQTIQPRNTDVLPDLREAGVEIQAAPQ", "F"),
    ("HMEGTEVTTEPPGAQIEFDGKQFGPTPTRVPGLAAGKQFRITLAGYQEAKPKLKNNPKEGEPLSFTLTAI", "T"),
    ("HMQKIEKVDYGTFLKMIENGEIDQVNLTEKKISFTTDKDAETVYETGRVEDPNIVDRLYQADVEFTQEI", "F"),
    ("HMSFMFEISVIRSQYNMQDPESKTGFYNAIAKKLLEFPEKLERDNYTEAVAREYMIPETDLKNLVNSMGG", "F"),
    ("HMSYLDTLPGRRVAAQGAITGDAGTLAVDGDTWSARVEPGAPDVAPGDEVTVLRIDGATLVVRPLP", "T"),
    ("HMEKIELKTVIPENLKKKRLDFALSELFPEHSRSRIQSWIKEGSVMVNSKNYRQRDLVDAGDVVEINTEQK", "T"),
    ("HMLIPADETEAKVLSVLSREPLHVDEIRNQAGLPIEKISATLALMELKGMVRQVGGMNYVSV", "F"),
]
